biological target: CHO-CHOP luciferase reporter, UPR activation, luminescence; experiment: CHOP reporter induction, apoptotic UPR branch – CHO-CHOP cells, luciferase luminescence, confirmation (AID 489024);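 note: compounds added alone to reporter cells with no tunicamycin stress co-treatment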
Active and inactive are the calls of the source.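 Rule for the calls: active = compounds whose mean EC50, the dose giving half the maximal reporter activation, is at or below a set limit; inactive = the rest.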
Outcome codes: yes (active), no (inactive)

compound=CCCN1C/C(=C/c2ccc3c(c2)OCO3)C(=O)/C(=C/c2ccc3c(c2)OCO3)C1 system_name="CHO-CHOP luciferase reporter, UPR activation, luminescence" category=yes
compound=Brc1ccc(-c2ccc(/C=N/Nc3nncc(-c4ccccc4)n3)o2)cc1 system_name="CHO-CHOP luciferase reporter, UPR activation, luminescence" category=yes
compound=Cc1cc(-n2c(C)cc(C(=O)CCl)c2C)no1 system_name="CHO-CHOP luciferase reporter, UPR activation, luminescence" category=yes
compound="O=C(NC1CCCC1)C(c1ccc(F)cc1)N(Cc1ccc(F)cc1)C(=O)CCl (stereo not given)" system_name="CHO-CHOP luciferase reporter, UPR activation, luminescence" category=yes
compound=O=C(Nc1ccc(Cc2ccncc2)cc1)c1ccc([N+](=O)[O-])o1 system_name="CHO-CHOP luciferase reporter, UPR activation, luminescence" category=yes
compound=Cc1nc(SCC(=O)Nc2ccc(F)cc2)c(C#N)c(C)c1CC(=O)c1ccc(Br)cc1 system_name="CHO-CHOP luciferase reporter, UPR activation, luminescence" category=no
compound=Cc1nc(NC(=O)/C=C/c2ccccc2)n[nH]1 system_name="CHO-CHOP luciferase reporter, UPR activation, luminescence" category=no
compound=C=CCN1C(=O)/C(=C/c2ccc3c(c2)CCCN3CCC)C(=O)NC1=S system_name="CHO-CHOP luciferase reporter, UPR activation, luminescence" category=yes
compound=Oc1cc(-c2ccncc2)cc2cccnc12 system_name="CHO-CHOP luciferase reporter, UPR activation, luminescence" category=no
compound=Cc1ccc(Cc2cnc(NC(=O)/C(C#N)=C/c3ccc(-c4cccc([N+](=O)[O-])c4)o3)s2)cc1 system_name="CHO-CHOP luciferase reporter, UPR activation, luminescence" category=yes
